The measured values listed here are drawn from patent US12281363B2.

# Tested on: HSV-1
# Assay Overview: Plaque reduction assay, HSV-1 clinical isolates on Vero cells
# Format: cell-based
# Applied Conditions: Human alphaherpesvirus 1, Vero, isolate HPG033, HSV-1 pol N1046T (3137A>C); also TK T287M, pol A1169T; read-out: Drug susceptibility (IC50 value)
Value Type: IC50 (µM)
Numeric answer only, unit µM assumed.

Worked set:
{"Compound Structure String": "O=C(O)P(=O)(O)O", "Assayed System": "HSV-1", "Value Type": "IC50", "Obs Value": 88.3}
{"Compound Structure String": "Nc1ccn(C[C@@H](CO)OCP(=O)(O)O)c(=O)n1", "Assayed System": "HSV-1", "Value Type": "IC50", "Obs Value": 15}

Please look at the following compound next.
Fill in the recorded IC50 for this compound, with HSV-1 as test system: "Nc1nc2c(ncn2COCCO)c(=O)[nH]1"
38.9

###

# Test system: HSV-1
# Assay Overview: Plaque reduction assay, HSV-1 clinical isolates on Vero cells
# Type: cell-based
# Applied Conditions: Human alphaherpesvirus 1, Vero, isolate HPG037, HSV-1 TK Y239H (715T>C); read-out: Drug susceptibility Cidofovir (CDV)
Value Type: IC50

Quick check: IC50 on HSV-1, item Nc1ccn(C[C@@H](CO)OCP(=O)(O)O)c(=O)n1 [Cidofovir, cidofovir] ?
< 24 µM

###

# Test system: HSV-1
# Assay Overview: Plaque reduction assay, HSV-1 clinical isolates on Vero cells
# Assay type: cell-based
# Applied Conditions: Human alphaherpesvirus 1, Vero, isolate HPG037, HSV-1 TK Y239H (715T>C); read-out: Drug susceptibility (IC50 value)
Value Type: pIC50
Bear in mind: pIC50 is minus log10 of a mol/L concentration; give just that figure.

{"Molecule": "Nc1nc2c(ncn2COCCO)c(=O)[nH]1 [Aciclovir, acyclovir]", "pIC50": 4.61}
{"Molecule": "Nc1ccn(C[C@@H](CO)OCP(=O)(O)O)c(=O)n1 [Cidofovir, cidofovir]", "pIC50": 5.36}

So what does the record say about pIC50 for O=C(O)P(=O)(O)O [Foscarnet, foscarnet] ?
4.10

###

# System: HSV-1
# Assay Overview: Plaque reduction assay, HSV-1 clinical isolates on Vero cells
# Assay type: cell-based
# Applied Conditions: Human alphaherpesvirus 1, Vero, isolate HPG026, HSV-1 pol E850Q (2548G>C); also TK R216C, pol A1169T; read-out: Drug susceptibility Cidofovir (CDV)
pIC50: −log10 of the molar value.
Value Type: pIC50

Which pIC50 is reported with HSV-1 for this entry: Nc1ccn(C[C@@H](CO)OCP(=O)(O)O)c(=O)n1 [Cidofovir, cidofovir] ?
> 4.62

###

# System: HSV-1
# Assay Overview: Plaque reduction assay, HSV-1 clinical isolates on Vero cells
# Type: cell-based
# Applied Conditions: Human alphaherpesvirus 1, Vero, isolate HPG015, HSV-1 pol 966stop or F965_I966insF (2892_2893insT to 2895_2896insT); read-out: Drug susceptibility (IC50 value)
Value Type: IC50 (µM)
Give your result in µM as a bare value.

# count of solved cases: 3
{"Compound Structure String": "Nc1ccn(C[C@@H](CO)OCP(=O)(O)O)c(=O)n1", "Unit Tag": "µM", "Obs Value": 45.1}
{"Compound Structure String": "Nc1nc2c(ncn2CCC(CO)CO)c(=O)[nH]1", "Unit Tag": "µM", "Obs Value": 8.48}
{"Compound Structure String": "Nc1nc2c(ncn2COCCO)c(=O)[nH]1", "Unit Tag": "µM", "Obs Value": 2.4}

Continue with the next compound.
What IC50 value was documented for this compound, "O=C(O)P(=O)(O)O" ?
162
